# Tested Target: human STING (WT) (Homo sapiens (Human), UniProt Q86WV6, H232R)
# Sequence (Q86WV6 149-345 H232R): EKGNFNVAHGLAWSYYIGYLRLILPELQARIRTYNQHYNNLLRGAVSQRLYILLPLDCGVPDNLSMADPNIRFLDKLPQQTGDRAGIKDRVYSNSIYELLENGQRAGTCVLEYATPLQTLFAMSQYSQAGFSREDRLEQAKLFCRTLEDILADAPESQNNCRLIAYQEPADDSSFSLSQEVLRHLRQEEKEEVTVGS
# Assay Protocol: Differential scanning fluorimetry (DSF), huSTING (WT)
# Format: binding
# Particulars: compound 100 μM, 2 μM protein, Tm with ligand minus Tm of protein alone (1% DMSO)
Endpoint Name: DSF huSTING (WT) ΔTm (°C)
Numbers only here, please. The scale is °C.

The recorded DSF huSTING (WT) ΔTm for NC(=O)c1ccc2c(c1)nc(-c1c(C(=O)O)sc3cccc(Cl)c13)n2CCn1c(-c2c(C(=O)O)sc3cccc(Cl)c23)nc2cc(C(N)=O)ccc21 (single isomer, unassigned) [Example 1.1] is 19.9

The recorded DSF huSTING (WT) ΔTm for COc1ccc(F)c2sc(C(=O)O)c(-c3nc4cc(C(N)=O)ccc4n3CCn3c(-c4c(C(=O)O)sc5c(F)ccc(OC)c45)nc4cc(C(N)=O)ccc43)c12 (single isomer, unassigned) [Example 13.1] is 18.17

The recorded DSF huSTING (WT) ΔTm for COc1c(C(N)=O)ccc2c1nc(-c1c(C(=O)O)sc3cccc(Cl)c13)n2CCn1c(-c2c(C(=O)O)sc3cccc(Cl)c23)nc2c(OC)c(C(N)=O)ccc21 (single isomer, unassigned) is 35.685

Data origin, for the record: patent US12384801B2
